Molecular target: OX1 (Homo sapiens, UniProt O43613)
Sequence (O43613 1-425): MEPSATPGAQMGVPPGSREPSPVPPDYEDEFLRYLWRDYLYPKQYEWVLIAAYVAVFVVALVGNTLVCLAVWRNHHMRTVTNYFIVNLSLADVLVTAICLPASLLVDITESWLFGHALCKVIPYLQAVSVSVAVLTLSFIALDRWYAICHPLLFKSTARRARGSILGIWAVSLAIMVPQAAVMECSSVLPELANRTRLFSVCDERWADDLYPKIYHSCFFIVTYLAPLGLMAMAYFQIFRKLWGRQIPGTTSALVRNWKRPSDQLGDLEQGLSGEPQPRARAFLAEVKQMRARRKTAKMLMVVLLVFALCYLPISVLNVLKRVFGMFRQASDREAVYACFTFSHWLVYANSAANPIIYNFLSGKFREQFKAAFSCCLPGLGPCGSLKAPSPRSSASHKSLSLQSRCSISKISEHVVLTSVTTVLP
Test: Orexin-receptor binding ability, [125I]-OX-A, CHO cell membranes expressing OX1
Set-up: expressed in transfected cells; host or cells: CHO cells (membrane preparation)
Details: membranes of recombinant CHO cells, 0.2 nM [125I]-OX-A tracer; read-out: OX1 (IC50)
RECORDED ENDPOINT: pIC50
# log scale: pIC50 equals minus log10 of the concentration in mol/L

For reference, reported pIC50 for Cc1cnc(OC[C@@]2(c3ccccc3)C[C@H]2C(=O)Nc2ccc(Cl)cn2)c(C)n1 stands at 7.48

The reported value for CCn1cc(OCC2(c3ccccc3)CC2C(=O)Nc2ccc(C#N)cn2)cn1 (centres unmarked) in terms of pIC50 is 6.44

// sample CCn1nc(C)c(Cl)c1OCC1(c2ccccc2)CC1C(=O)Nc1ccc(F)cn1 (centres unmarked) , its pIC50 was 6.44

Looking up CCn1cc(CCC2(c3ccccc3)CC2C(=O)Nc2ccc(Cl)cn2)cn1 (centres unmarked) , I found its pIC50 recorded as 6.44

Notebook: COc1ccc(OCC2(c3ccccc3)CC2C(=O)Nc2ccccc2)cc1OC (centres unmarked) , pIC50 read as 8.15

For reference, reported pIC50 for Cc1nn(C)cc1OCC1(c2ccccc2)CC1C(=O)Nc1ccc(Cl)cn1 (centres unmarked) stands at 6.17

Quick note, pIC50 for COc1ccc(OCC2(c3ccccc3)CC2C(=O)Nc2ccncc2C(F)(F)F)cc1OC (centres unmarked) landed at 6.43

Sample Cc1nc(C(F)F)nn1CC[C@@]1(c2ccccc2)C[C@H]1C(=O)Nc1ccc(Cl)cn1 ; pIC50 observed: 6.71
